Cited source: patent US20240132624A1

target: T1, human FcRn/b2M (human, UniProt P61769 21-119, biotinylated); assay: SPR off-rate; pH 7.4 vs pH 6.0;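 further: surface plasmon resonance with diluted periplasmic extracts flowed over ligand surfaces, 120 s association and 600–3600 s dissociation at 25 °C, running buffer containing 150 mM NaCl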
T1 construct: bought recombinant biotinylated protein (ACRO FCM-H82W4 or Immunitrack ITF01); also called hFcRn; hFcRn/hb2M
T1 sequence (chain, as listed by the source limits assumed, chain 1 of 2): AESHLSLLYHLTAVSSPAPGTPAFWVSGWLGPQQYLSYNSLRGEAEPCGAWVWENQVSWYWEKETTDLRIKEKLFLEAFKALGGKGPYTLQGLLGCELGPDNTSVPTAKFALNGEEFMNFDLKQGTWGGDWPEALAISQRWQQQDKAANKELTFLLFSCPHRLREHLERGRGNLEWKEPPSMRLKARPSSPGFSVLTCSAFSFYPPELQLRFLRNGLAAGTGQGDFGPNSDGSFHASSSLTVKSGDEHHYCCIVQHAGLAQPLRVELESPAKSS
T1 sequence (P61769 21-119 limits assumed, chain 2 of 2): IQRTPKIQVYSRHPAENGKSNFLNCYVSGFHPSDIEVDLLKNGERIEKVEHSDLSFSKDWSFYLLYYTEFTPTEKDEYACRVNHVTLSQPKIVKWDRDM
experimental-endpoint: kd ratio pH 7.4/6.0

T0263018B11 T28L (VHH, name in Kabat numbering, FLAG3-His6 tagged) VHH: EVQLVESGGGVVQPGGSLRLSCAASGFLFSSYAMYWVRQAPGKGLEWVSAISSGGGSTDYADSVKGRFTISRDNSKNTLYLQMNSLRPEDTALYYCAADTLYTSLTWYSYWGQGTLVTVSS = 41
T0263018B11 G54E (VHH, name in Kabat numbering, FLAG3-His6 tagged) VHH: EVQLVESGGGVVQPGGSLRLSCAASGFTFSSYAMYWVRQAPGKGLEWVSAISSGEGSTDYADSVKGRFTISRDNSKNTLYLQMNSLRPEDTALYYCAADTLYTSLTWYSYWGQGTLVTVSS = 29
